target entity: Ubiquitin carboxyl-terminal hydrolase 28 (Homo sapiens)
Sequence (Q96RU2 whole entry): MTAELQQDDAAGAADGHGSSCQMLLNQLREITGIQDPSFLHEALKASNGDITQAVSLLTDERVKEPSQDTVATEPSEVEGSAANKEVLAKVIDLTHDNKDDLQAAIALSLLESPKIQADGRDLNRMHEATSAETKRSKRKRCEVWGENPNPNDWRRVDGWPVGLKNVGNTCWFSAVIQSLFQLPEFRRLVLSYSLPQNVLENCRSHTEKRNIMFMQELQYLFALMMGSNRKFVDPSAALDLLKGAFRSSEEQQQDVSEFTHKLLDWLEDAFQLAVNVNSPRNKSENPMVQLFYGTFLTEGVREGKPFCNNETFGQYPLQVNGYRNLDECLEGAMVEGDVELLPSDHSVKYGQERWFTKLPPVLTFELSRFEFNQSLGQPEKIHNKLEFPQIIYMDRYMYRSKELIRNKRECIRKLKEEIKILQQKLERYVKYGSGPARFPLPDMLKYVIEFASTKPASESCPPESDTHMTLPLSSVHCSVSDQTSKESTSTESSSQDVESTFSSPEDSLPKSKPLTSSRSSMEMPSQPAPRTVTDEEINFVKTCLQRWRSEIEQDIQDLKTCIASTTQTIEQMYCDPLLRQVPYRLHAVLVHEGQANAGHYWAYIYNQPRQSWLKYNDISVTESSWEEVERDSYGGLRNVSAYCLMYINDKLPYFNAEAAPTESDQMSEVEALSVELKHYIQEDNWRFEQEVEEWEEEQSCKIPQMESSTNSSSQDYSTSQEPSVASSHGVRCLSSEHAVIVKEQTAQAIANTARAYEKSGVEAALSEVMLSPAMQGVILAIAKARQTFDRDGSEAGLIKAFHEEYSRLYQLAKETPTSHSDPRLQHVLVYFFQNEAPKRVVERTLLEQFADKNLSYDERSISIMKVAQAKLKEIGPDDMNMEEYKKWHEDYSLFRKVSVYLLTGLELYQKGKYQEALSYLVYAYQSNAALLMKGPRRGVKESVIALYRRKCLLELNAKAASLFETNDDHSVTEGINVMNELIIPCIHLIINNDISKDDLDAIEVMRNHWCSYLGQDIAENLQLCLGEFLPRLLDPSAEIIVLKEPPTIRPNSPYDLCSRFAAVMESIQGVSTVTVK
assay notes: Biochemical Assay
property name: IC50

Incoming: Could you please provide reported IC50 for Cc1cnc2c(N)c(C(=O)NCCc3ccc(N4C5CCC4CNC5)cc3F)sc2n1 ? Thanks!
Outgoing: < 200 nM
